tested on: MRSA 2: MRSA DR 42412 (sputum); assay: microbe, parasite or virus in culture; details: 2: DR 42412 (sputum, 24 h)
Bridge positions count the residues as written; N and C are the ends. Square brackets hold non-standard residues; d marks the D form. Peptide text beside a SMILES is read from it. d(aIle) = CC[C@H](C)[C@@H](N)C(=O)O; dNMeF = CN[C@H](Cc1ccccc1)C(=O)O
quantity measured: MIC (without polysorbate 80)
Write the numeric value and follow it with the unit.

Give the measured MIC (without polysorbate 80) of CC[C@H](C)[C@H](NC(=O)[C@@H](Cc1ccccc1)NC)C(=O)N[C@@H](CO)C(=O)N[C@H](CCC(N)=O)C(=O)N[C@@H](C(=O)N[C@H](C(=O)N[C@@H](CO)C(=O)N[C@H]1C(=O)N[C@@H](C)C(=O)N[C@@H](C(C)C)C(=O)N[C@@H]([C@@H](C)CC)C(=O)O[C@H]1C)[C@@H](C)CC)[C@@H](C)CC [Compound 11, Val10-teixobactin] (H-[dNMeF]IS[dQ][d(aIle)]IS[dT]AVI; ester 8-C) . 2 µg/mL
